target: TYK2 JH2 pseudokinase (human); assay: KINOMEscan competition binding; conditions: compound 10.0 µM
OBSERVED_PROPERTY: kinase still bound, per cent of control (%)
Answer with a number only, understood to be in %.

Worked examples, 3 compounds total:
SMILES_REPR	QUANTITY_UNIT	kinase still bound, per cent of control
COc1cc(C(=O)N2CCC(N3CCN(C)CC3)CC2)ccc1Nc1ncc2c(n1)N(C)c1ccccc1C(=O)N2C	%	100
C=CC(=O)Nc1cc(-n2c(=O)ccc3cnc4ccc(-c5cn[nH]c5)cc4c32)ccc1C	%	36
CCN(CC)CCCCNc1ncc2c(n1)N(C)C(=O)N(c1c(Cl)c(OC)cc(OC)c1Cl)C2	%	100

Here is the next item to consider.
Request: Consider the compound shown here: C=CC(=O)Nc1ccc(CN(C(=O)Nc2c(Cl)c(OC)cc(OC)c2Cl)c2cc(Nc3ccc(N4CCN(C)CC4)cc3)ncn2)cc1 What is its recorded kinase still bound, per cent of control?
Result: 100

----------
molecular target: UniProt:Q96RR4; experiment: KINOMEscan competition binding; settings: compound 10.0 µM
Sequence (Q96RR4 whole entry, looked up): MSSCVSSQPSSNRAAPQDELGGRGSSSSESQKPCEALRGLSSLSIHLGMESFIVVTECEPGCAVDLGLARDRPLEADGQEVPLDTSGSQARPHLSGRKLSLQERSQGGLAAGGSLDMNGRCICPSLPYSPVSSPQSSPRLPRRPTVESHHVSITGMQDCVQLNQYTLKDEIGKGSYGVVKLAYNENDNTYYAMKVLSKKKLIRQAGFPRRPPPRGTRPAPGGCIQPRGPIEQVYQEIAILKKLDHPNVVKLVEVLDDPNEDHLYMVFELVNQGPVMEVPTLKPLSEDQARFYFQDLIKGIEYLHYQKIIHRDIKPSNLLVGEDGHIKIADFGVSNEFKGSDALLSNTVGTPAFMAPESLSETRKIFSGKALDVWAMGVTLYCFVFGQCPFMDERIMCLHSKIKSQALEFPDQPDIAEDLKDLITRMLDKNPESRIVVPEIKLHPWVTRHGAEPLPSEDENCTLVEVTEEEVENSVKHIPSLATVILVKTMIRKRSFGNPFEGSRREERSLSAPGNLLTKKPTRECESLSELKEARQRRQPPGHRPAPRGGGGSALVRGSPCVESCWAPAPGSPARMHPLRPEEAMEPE
OBSERVED_PROPERTY: kinase still bound, per cent of control
The reply must contain the numeric value and, after it, the unit.

SMILES_REPR	RESULT
Cc1n[nH]c2ccc(-c3cncc(OC[C@@H](N)Cc4c[nH]c5ccccc45)c3)cc12	2%

Here is the next item to consider.
Request: Consider the compound shown here: CNC(=O)c1ccc(Nc2cc(Nc3ccccc3S(=O)(=O)C(C)C)c3cc[nH]c3n2)nc1 What is its recorded kinase still bound, per cent of control?
Result: 100%

----------
biological target: BTK (human); test: KINOMEscan competition binding; settings: compound 10.0 µM
OBSERVED_PROPERTY: kinase still bound, per cent of control (%)
Answer with a number only, understood to be in %.

Worked examples, 2 molecules total:
SMILES_REPR	QUANTITY_UNIT	kinase still bound, per cent of control
O=C(Nc1cccc(Nc2ncc(Br)c(NCCc3cnc[nH]3)n2)c1)N1CCCC1	%	5.2
CS(=O)(=O)N1CCN(Cc2cc3nc(-c4cccc5[nH]ncc45)nc(N4CCOCC4)c3s2)CC1	%	100

Here is the next item to consider.
Request: Consider the molecule shown here: O=C1NC(=O)/C(=C/c2ccc3nccc(-c4ccncc4)c3c2)S1 What is its recorded kinase still bound, per cent of control?
Result: 58

----------
In this section we review reported kinase still bound, per cent of control values for a set of molecules.
molecular target: MAP3K7 (human) (UniProt O43318); assay: KINOMEscan competition binding; details: compound 10.0 µM
Sequence (O43318 whole entry, looked up): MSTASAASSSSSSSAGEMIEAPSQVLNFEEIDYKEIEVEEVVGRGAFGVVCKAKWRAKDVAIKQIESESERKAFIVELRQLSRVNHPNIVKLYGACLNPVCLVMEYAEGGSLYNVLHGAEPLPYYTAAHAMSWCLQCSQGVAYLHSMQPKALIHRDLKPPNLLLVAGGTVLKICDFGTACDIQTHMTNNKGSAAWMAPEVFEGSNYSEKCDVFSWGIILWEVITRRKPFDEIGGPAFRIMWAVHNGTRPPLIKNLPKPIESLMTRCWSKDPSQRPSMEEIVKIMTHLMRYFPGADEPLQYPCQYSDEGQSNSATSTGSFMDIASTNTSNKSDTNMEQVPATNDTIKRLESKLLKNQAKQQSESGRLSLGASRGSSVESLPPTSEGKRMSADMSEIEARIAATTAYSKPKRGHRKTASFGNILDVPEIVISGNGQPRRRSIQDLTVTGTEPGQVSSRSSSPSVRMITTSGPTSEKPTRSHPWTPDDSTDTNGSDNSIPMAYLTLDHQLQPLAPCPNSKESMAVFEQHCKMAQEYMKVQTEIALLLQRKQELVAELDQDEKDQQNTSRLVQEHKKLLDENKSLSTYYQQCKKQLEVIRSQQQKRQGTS
Answer with a number only, understood to be in %.

SMILES_REPR	QUANTITY_UNIT	kinase still bound, per cent of control
NC(=O)Nc1cc(-c2cccc(F)c2)sc1C(=O)N[C@@H]1CCCNC1	%	0
COCC(=O)NC/C=C/c1ccc2ncnc(Nc3ccc(Oc4ccc(C)nc4)c(C)c3)c2c1	%	100
COc1cc(N2CCN(C)CC2)ccc1Nc1ncc2c(n1)N(C)c1ccccc1C(=O)N2C	%	100
C[C@@H](Oc1cc(-c2cnn(C3CCNCC3)c2)cnc1N)c1c(Cl)ccc(F)c1Cl	%	8.2

Here is the next item to consider.
Request: What measured kinase still bound, per cent of control is associated with COc1cc2ncnc(-n3nc(-c4ccccn4)nc3N)c2cc1OC on MAP3K7 (human) (UniProt O43318)?
Result: 15
